Provenance of the data: patent US20200017592A1

Parameter: pKd. Scope: all listed entries.
- STUDY TARGET: T1, recombinant human IL-36R extracellular domain expressed with a C-terminal myc-myc-hexahistidine tag (human, UniProt Q9HB29 20-337)
- T1 construct: also called hIL-36R-MMH; hIL-36R.mmH
- T1 sequence (Q9HB29 other isoform, or with tags, fused parts or gaps limits assumed): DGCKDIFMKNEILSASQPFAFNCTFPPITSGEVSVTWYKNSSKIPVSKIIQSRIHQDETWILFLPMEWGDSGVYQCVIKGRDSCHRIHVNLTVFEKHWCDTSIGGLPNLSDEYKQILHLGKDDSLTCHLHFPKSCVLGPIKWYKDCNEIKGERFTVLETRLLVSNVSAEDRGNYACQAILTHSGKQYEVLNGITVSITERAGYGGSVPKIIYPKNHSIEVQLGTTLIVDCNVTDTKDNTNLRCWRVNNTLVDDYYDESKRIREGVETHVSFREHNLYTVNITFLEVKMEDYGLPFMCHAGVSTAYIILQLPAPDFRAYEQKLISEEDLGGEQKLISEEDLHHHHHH
- METHOD: SPR (Biacore 4000), mAb captured on anti-human Fc, 37°C
Remember, pKd is on a log scale: it is -log10 of the molar concentration.

Check out these entries, answers already filled in.
Given the binder H4H14708P2 (antibody, human IgG4 S228P, kappa, V domains shown) VH: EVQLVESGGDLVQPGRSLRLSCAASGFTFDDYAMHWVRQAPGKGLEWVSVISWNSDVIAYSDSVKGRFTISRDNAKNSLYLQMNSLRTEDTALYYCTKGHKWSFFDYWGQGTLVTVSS VL: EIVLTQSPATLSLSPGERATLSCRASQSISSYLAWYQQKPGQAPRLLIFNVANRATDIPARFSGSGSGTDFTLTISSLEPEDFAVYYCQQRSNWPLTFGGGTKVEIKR , what is its reported pKd? 7.87

Endpoint output: pKd of H4H14731P (antibody, human IgG4 S228P, kappa, V domains shown) VH: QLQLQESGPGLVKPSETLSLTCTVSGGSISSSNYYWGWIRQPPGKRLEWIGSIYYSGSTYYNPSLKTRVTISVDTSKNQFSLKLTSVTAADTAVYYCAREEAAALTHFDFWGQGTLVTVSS VL: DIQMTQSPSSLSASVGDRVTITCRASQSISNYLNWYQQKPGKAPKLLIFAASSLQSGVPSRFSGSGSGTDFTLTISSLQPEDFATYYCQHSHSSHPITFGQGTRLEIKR . Value? 8.15

Consider the binder H4H14709P (antibody, human IgG4 S228P, kappa, V domains shown) VH: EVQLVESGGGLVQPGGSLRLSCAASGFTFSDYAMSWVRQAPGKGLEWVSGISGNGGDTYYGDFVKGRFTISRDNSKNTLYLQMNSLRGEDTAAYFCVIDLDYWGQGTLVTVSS VL: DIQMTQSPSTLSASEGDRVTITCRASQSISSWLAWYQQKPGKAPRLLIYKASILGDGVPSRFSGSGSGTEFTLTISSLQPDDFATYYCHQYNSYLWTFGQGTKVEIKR and give its measured pKd. 8.37

Dear colleague, I am looking for the recorded pKd of the following binder: H4H14706P2 (antibody, human IgG4 S228P, kappa, V domains shown) VH: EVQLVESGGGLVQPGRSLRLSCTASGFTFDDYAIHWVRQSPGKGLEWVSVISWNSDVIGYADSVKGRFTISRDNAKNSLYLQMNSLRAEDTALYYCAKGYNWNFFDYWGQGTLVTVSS VL: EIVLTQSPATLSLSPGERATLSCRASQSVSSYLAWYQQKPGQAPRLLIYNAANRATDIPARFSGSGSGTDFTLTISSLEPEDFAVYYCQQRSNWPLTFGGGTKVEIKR 8.06

Further cases:
Fill blank: measured pKd of the binder H4H14757P (antibody, human IgG4 S228P, kappa, V domains shown) VH: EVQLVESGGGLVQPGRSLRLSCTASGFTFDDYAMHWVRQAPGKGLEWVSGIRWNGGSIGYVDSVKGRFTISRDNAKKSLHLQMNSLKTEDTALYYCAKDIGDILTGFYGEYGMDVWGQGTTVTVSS VL: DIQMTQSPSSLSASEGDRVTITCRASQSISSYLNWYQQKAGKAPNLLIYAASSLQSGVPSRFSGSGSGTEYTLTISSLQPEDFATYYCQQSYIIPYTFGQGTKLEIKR is ____. 8.29
